Each recorded value in this set is attributed to ChEMBL document CHEMBL1201862.

tested on: HT-29; assay: NCI tumour cell line growth inhibition, 48 h
Active and inactive are the calls of the source. Rule as the data show it: active = GI50 up to about 1.1 µM and inactive = higher.
Recorded GI50, one value per entry.

[
  {
    "Molecule": "CCCCCCCCCC(=O)NCCc1c[nH]c2ccc(OC)cc12",
    "Value kind": "GI50",
    "Observed": "23.2 µM (inactive)"
  },
  {
    "Molecule": "CCCn1c(=O)c(N2CCN(c3ccccc3)CC2)nc2sc3ccccc3c21",
    "Value kind": "GI50",
    "Observed": "> 100 µM (inactive)"
  },
  {
    "Molecule": "CC1(C)CS(=O)(=O)CC(C)(C)C(=N/N)/C1=N\\N",
    "Value kind": "GI50",
    "Observed": "> 100 µM (inactive)"
  },
  {
    "Molecule": "Cc1ccc(NC(=O)CC2SC(Nc3ccc(Cl)cc3)=NC2=O)cc1C (stereo unspecified)",
    "Value kind": "GI50",
    "Observed": "18.2 µM (inactive)"
  },
  {
    "Molecule": "CCOC(=O)[C@H]1Nc2ccccc2C2c3ccccc3CC21 (stereo partly specified)",
    "Value kind": "GI50",
    "Observed": "19 µM (inactive)"
  },
  {
    "Molecule": "Cc1ccc2nc(N/N=C/c3cccc(C)n3)cc(C)c2c1",
    "Value kind": "GI50",
    "Observed": "12.3 µM (inactive)"
  }
]

Any idea what its GI50 is? The molecule is COc1ccc(N[C@H]([C@@H](c2ccccc2)[S+]([O-])c2ccc(C)cc2)C(F)(F)F)cc1 (stereo partly specified)
31.8 µM (inactive)

What would you report for O=C1CCCC(=O)N1CCc1c[nH]c2ccccc12 ?
> 100 µM (inactive)

Lookup C=C1C(=O)O[C@@H]2C(=O)[C@@H](C)CCC/C(C)=C/CC[C@@]3(C)O[C@@H]3C[C@@H]12
14.3 µM (inactive)

Also CCOC(=O)CCSc1nc2ccc(I)cc2c(=O)n1Cc1ccccc1 ?
34.4 µM (inactive)

And O=C(Nc1ccc2cc3ccccc3cc2c1)c1cc2c(cc1Cl)Sc1nccn1S2(=O)=O ?
18.9 µM (inactive)

For COc1ccc([C@H]2C=C(c3cc(F)c(Cl)cc3Cl)NC(=S)N2)cc1 then?
26.2 µM (inactive)

Next entry: CC(=O)O[C@H]1CC[C@@]2(C)C(=CC[C@@H]3[C@@H]2CC[C@](C)(c2nnc(C)o2)[C@H]3CC#N)C1
> 100 µM (inactive)

Note, next up: Nc1ncnc2c1ncn2C(=O)NC12CC3CC(CC(C3)C1)C2
> 100 µM (inactive)

Ok, now CC(C)(C)[Si](C)(C)OCC1OC(n2cnc3c(NC(=O)c4ccccc4)ncnc32)CC1O (stereo unspecified)
36.5 µM (inactive)
